// values below are reported IL-2 production, SEB-dependent PBMC stimulation test, 0.0032 ug/ml, N = 1
- target-system: T1, human LAG-3 on cells (HEK293-hLAG-3 stable cell line) (human, UniProt P18627 23-525)
- T1 sequence: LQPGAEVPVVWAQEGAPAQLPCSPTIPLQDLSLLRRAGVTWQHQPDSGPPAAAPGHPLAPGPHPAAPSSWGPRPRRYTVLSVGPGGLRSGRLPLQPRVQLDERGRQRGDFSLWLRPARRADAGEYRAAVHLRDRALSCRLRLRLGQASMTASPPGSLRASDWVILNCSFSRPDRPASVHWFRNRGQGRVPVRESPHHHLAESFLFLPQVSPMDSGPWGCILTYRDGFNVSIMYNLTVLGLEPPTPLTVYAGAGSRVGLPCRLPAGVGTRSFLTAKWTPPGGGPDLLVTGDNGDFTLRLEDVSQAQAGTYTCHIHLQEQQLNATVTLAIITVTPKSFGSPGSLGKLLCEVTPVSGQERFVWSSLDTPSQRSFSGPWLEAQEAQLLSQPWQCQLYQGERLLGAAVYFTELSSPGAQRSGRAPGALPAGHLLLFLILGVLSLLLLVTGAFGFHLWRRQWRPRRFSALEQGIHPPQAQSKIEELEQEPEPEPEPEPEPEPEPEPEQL
- assay-procedure: cell-based or functional assay
Reply with just the number (in pg/mL).

// known answers, use as guide
binder	readout-number
409D4E10 mouse-human chimeric antibody (antibody, V domains shown, also called mAb112-409D4E10) VH: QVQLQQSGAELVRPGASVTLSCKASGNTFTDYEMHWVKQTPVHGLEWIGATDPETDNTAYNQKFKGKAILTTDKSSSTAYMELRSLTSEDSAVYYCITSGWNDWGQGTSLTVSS VL: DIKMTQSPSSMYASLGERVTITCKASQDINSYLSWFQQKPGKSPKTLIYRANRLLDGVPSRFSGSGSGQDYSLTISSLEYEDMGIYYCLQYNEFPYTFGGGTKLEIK	1660
405B8H3 mouse-human chimeric antibody (antibody, V domains shown, also called mAb103-405B8H3) VH: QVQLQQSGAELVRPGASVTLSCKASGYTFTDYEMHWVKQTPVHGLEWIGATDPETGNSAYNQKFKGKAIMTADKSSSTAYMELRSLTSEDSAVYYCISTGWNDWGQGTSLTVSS VL: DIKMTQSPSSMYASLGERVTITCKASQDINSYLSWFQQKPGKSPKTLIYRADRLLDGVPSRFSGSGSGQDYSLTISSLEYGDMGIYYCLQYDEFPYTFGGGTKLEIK	2000

Moving on to another binder below.
(Q) Recall and state the measured IL-2 production, SEB-dependent PBMC stimulation test, 0.0032 ug/ml, N = 1 for 556F6B8 mouse-human chimeric antibody (antibody, V domains shown, also called mAb123-556F6B8; 556F8B8) VH: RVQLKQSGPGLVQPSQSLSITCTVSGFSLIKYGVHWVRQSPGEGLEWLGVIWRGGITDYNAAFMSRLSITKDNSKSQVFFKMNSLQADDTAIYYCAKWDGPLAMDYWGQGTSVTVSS VL: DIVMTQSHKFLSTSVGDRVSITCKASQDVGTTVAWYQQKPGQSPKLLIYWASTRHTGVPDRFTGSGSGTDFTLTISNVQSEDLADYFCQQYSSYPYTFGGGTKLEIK .
(A) 1780

This collection of values is drawn from patent US20210155689A1.
